Target: T1, TL1A in human blood (human, UniProt O95150 72-251, limits assumed)
T1 sequence (looked up): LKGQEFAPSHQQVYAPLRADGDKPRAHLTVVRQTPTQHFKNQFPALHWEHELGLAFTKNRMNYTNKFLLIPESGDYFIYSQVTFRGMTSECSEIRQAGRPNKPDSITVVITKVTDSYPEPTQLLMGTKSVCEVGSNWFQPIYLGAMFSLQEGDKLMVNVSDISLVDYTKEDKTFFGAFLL
Assay: cell-based or functional assay
Cut-off 50% on % Inhibition at 1 nM Ig; interferon gamma release in human blood, inclusive. At or above means true (1); below means false (0).

Is it the case that A220 (antibody, IgG1, V domains shown) VH: QVQLVQSGAEVKKPGASVKVSCKASGFDIQDTYMHWVKQRPGQGLEWMGRIDPASGHTKYDPKFQVRVTMTRDTSTSTAYLELSSLRSEDTAVYYCARSGGLPDVWGQGTTVTVSS VL: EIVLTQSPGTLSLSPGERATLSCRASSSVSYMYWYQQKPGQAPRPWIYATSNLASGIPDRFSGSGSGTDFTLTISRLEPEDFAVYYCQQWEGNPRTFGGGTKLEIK has % Inhibition at 1 nM Ig; interferon gamma release in human blood reaching or exceeding 50%?
false (0)

Is it the case that A212 (antibody, IgG1, V domains shown) VH: QVQLVQSGAEVKKPGASVKVSCKASGFDIQDTYMHWVRQRPGQGLEWIGRIDPASGHTKYDPKFQVRATITTDTSTSTAYLELSSLRSEDTAVYYCARSGGLPDVWGQGTTVTVSS VL: EIVLTQSPGTLSLSPGERATLSCRASSSVSYMYWYQQKPGQAPRPLIYATSNLASGIPDRFSGSGSGTDFTLTISRLEPEDFAVYYCQQWEGNPRTFGGGTKLEIK has % Inhibition at 1 nM Ig; interferon gamma release in human blood reaching or exceeding 50%?
false (0)

Is it the case that A219 (antibody, V domains shown, IgG1) VH: QVQLVQSGAEVKKPGASVKVSCKASGFDIQDTYMHWVKQRPGQGLEWMGRIDPASGHTKYDPKFQVRVTITRDTSTSTVYLELSSLRSEDTAVYYCARSGGLPDVWGQGTTVTVSS VL: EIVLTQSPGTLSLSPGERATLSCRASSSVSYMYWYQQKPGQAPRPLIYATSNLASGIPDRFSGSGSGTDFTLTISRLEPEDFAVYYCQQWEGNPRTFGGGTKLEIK has % Inhibition at 1 nM Ig; interferon gamma release in human blood reaching or exceeding 50%?
true (1)

Is it the case that A217 (antibody, IgG1, V domains shown) VH: QVQLVQSGAEVKKPGASVKVSCKASGFDIQDTYMHWVKQRPGQGLEWMGRIDPASGHTKYDPKFQVRVTITRDTSTSTVYMELSSLRSEDTAVYYCARSGGLPDVWGQGTTVTVSS VL: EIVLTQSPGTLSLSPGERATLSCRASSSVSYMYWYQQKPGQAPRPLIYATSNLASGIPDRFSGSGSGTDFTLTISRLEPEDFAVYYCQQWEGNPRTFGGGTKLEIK has % Inhibition at 1 nM Ig; interferon gamma release in human blood reaching or exceeding 50%?
false (0)
